- Method Description: yeast display, Sf9 membrane polyspecificity reagent, FACS + sequencing; frameworks hold sequencing errors
Measurement Kind: polyreactivity (PSR sort gate)

QVQLVESGGGLVQAGGSLRLSCSASGSTFRWNAMGWYRQAPGKERELVASITSGGSTNYADSVKGRFTMSRDNAKNTVYLQLNSLKPEDTAVSYCNADVRRYSNYVWLYDYWGQGTQVTVSS : low polyreactivity
QVQLVESGGGLVQAGGSLRLSCAASGSTFDKYPLGWYRQAPGKERELVAAITWGGGSTYYADSVKGRFTISRDNAKNTVYLQMNSLKPEDTAVYYCAAEQGSSVLYDSWGQGTQVTVSS : low polyreactivity

###

- Method Description: yeast display, Sf9 membrane polyspecificity reagent, FACS + sequencing; frameworks hold sequencing errors
Measurement Kind: polyreactivity (PSR sort gate)

Past entries and their recorded results:
QVQLVESGGGLVQAGGSLRLSCAASGRTSLRYSMGWYRQAPGKERELVAAITSSGATTYYADSVKGRFTISRDNAKNTVYLQMNSLKPEDTAVYYCAAVYSAKRGSGGFGYWGQGTQVTVSS : high polyreactivity
QVQLVESGGGLVQAGGSLRLSCAASGFIFDVYAMGWYRQAPGKERELVAAITGSGSITYYADSVKGRFTISRDNAKNTVYLQMNSLKPEDTAVYYCAALGPTQDRDYWGQGTQVTVSS : high polyreactivity
QVQLVESGGGLVQAGGSLRLICAASGRNFSGNAMGWYTQAPRKERELVAAISTGGSTNYADSVKGRFTISRDNAKNTVYLHMNSLKQEDTAVYYCAADEWRFPSYAYYYWGQGTQVNVSS : low polyreactivity
QVQLVETGGGLVQAGGSLRLSCAASGSIFQGYAMGWYRQAPGKERELVAGITSSGGSTHYADSVKGRFTISRDNAKNTVYLQMNSLKPEDTAVYDYWGQGTQVTVSS : low polyreactivity

In the following, a different sequence is considered.
For the sequence `QVQLVESGGGLVQAGGSLRLSCAASGSIFASYVMGWYRQAPGKERELVAAISSSGASTYYADSVKGRFTISRDNAKNTVSLQMNSLKPEDTAVSYCATPYYRSYLGDYWGQGTQVTVSS` , report polyreactivity (PSR sort gate).
high polyreactivity

###

- Method Description: yeast display, Sf9 membrane polyspecificity reagent, FACS + sequencing; frameworks hold sequencing errors
Measurement Kind: polyreactivity (PSR sort gate)

QVQLVESAGRLVQAGGSLRLSCAPSGSIFSHNAMGWYRPAPGKERELVAAISRSGGSTYYADSVKGRFTISRDNAKNTVYLQMNSQKPEDTAVYYCNALGRISNHTLYDYWGQGTQVTVSS : low polyreactivity
QVQLVESGGGLVQAGGSLRLTCAASGLTFPSYSMGWYRQAPGKERELVAAIYYSGGSTYYADSVKGRFTISRDNAKITVYIHMNSLKPEDTAVYYCAADFTSFFNRIDYWGQGTQVTVSS : low polyreactivity
QVQLVESGGGLVQAGGSLRLSCAASGSIFFSSAMGWSRQEPGKERELVAAISSGASTYYADSVKGRFTISRDNAKNTVYLQMNSLKPEDTAVYYCAARGYRLVPVDFYYWGQGTQVTVSS : low polyreactivity
QVQLVESGGGSVQAGGRLRLSCAASGSIFGQYAMGWYRQAPGKERELVAAISDTDSTNYADSVKGRFTISRDNAKNTVYLQMNSLKPEDTAVYYCNADTWGYRLGYYYYKFDYWGQGTQVTVSS : low polyreactivity

For the sequence `QVQLVESAGGLVQAGGSLRLSCAATGFTFYTYAMGWYRQAPGKERELVADISSGGSTNYADSVKGRFTISRDNAKNTVYLQMNSLKPEDTAVYYSSAVYYFLDWYDYWGQGTQVNVSS` , give its measured polyreactivity (PSR sort gate) value.
low polyreactivity

Every entry's value here was drawn from the nanobody polyreactivity screen of Harvey et al. (2022).
